Parameter: cytotoxicity at 70.5 h. Scope: all listed entries.
assayNotes: Human HepG2 cell viability assay in 384 well format
Type: toxicity, cell-based
Design: dose 125 nL, time 70.5 hour; concentration not given beside the values
testSettings: HepG2 cells, read-out: Inhibition
I only need the number, in %, no unit after it.

>  <molecule>
NS(=O)(=O)c1cnn(-c2ccc(NC(=O)C3CCCCC3)cn2)c1

>  <cytotoxicity at 70.5 h (%)>
-0.503

$$$$
>  <molecule>
Cc1cnc(CN2CCCC(c3nc4ccccc4n3C(C)C)C2)o1 (centres undefined)

>  <cytotoxicity at 70.5 h (%)>
20.6

$$$$
>  <molecule>
Cc1nc(CN(C)CC(c2cccs2)N2CCOCC2)no1 (centres undefined)

>  <cytotoxicity at 70.5 h (%)>
-1.7

$$$$
>  <molecule>
C=C(C)COc1cccc(C(=O)N(C)C(C)c2c(C)n[nH]c2C)c1 (centres undefined)

>  <cytotoxicity at 70.5 h (%)>
-4.42

$$$$
>  <molecule>
CC(=O)N1CCC(NC(=O)NCc2ncc(-c3ccccc3)o2)CC1

>  <cytotoxicity at 70.5 h (%)>
-3.53

$$$$
>  <molecule>
O=C(c1ccco1)N1CC[C@@H]2O[C@@H](COCC3CCOCC3)CC[C@@H]21

>  <cytotoxicity at 70.5 h (%)>
11.4

$$$$

Record Cc1noc(C)c1C(=O)N[C@@H]1CCC[C@@H](Oc2ccccc2)[C@@H]1O . Reported cytotoxicity at 70.5 h: -1.7

Record Cc1nc(-c2cccc(C(=O)O)c2)c[nH]1 . Reported cytotoxicity at 70.5 h: 15.3

Record CCc1cnc(C)nc1NCc1cnc2c(c1)CCC2 . Reported cytotoxicity at 70.5 h: -9.06

Record c1cnn(CCC2CCCCN2Cc2cnc(C3CCCCC3)nc2)c1 (centres undefined) . Reported cytotoxicity at 70.5 h: -8.97

Record O=C(Cc1c(F)cccc1Cl)Nc1cc(N2CCOCC2)ncn1 . Reported cytotoxicity at 70.5 h: 9.04

Record COCCN1CCC(CN(CC2CCCO2)C(=O)CNC(C)=O)CC1 (centres undefined) . Reported cytotoxicity at 70.5 h: -1.99

Record O=C(CCc1ccco1)N1CCC(Nc2cccnn2)CC1 . Reported cytotoxicity at 70.5 h: 1.07

----------
assayNotes: Human HepG2 cell viability assay in 384 well format
Assay type: toxicity, cell-based
Set-up: dose 125 nL, time 70.5 hour; concentration not given beside the values
testSettings: HepG2 cells, read-out: Inhibition
measurementType: cytotoxicity at 70.5 h (%)
I only need the number, in %, no unit after it.

A selection of reference data follows.
>  <compound>
Cn1cc(C2NC3(CCCC3)C(=O)N2CC2CC2)c(=O)n(C)c1=O (stereo unspecified)

>  <cytotoxicity at 70.5 h [%]>
-5.99

$$$$
>  <compound>
CCCc1noc(-c2ccc(-n3ncc(C(=O)O)c3C)nc2)n1

>  <cytotoxicity at 70.5 h [%]>
23.5

$$$$

Record CSc1nccc(N2C[C@@H](CN3CCCCC3)[C@@H](CO)C2)n1 . Reported cytotoxicity at 70.5 h: 27.1

----------
assayNotes: Human HepG2 cell viability assay in 384 well format
Assay type: toxicity, cell-based
Design: dose 125 nL, time 70.5 hour; concentration not given beside the values
testSettings: HepG2 cells, read-out: Inhibition
Parameter: cytotoxicity at 70.5 h. Scope: all listed entries.
I only need the number, in %, no unit after it.

A selection of reference data follows.
>  <compound>
Cc1cc(O)nc(C2CCN(C(=O)CO)CC2)n1

>  <unitText>
%

>  <cytotoxicity at 70.5 h>
-3.54

$$$$
>  <compound>
Cc1noc(C(C)N2CCN(CC(=O)N3CCCC3)CC2)n1 (stereo not drawn)

>  <unitText>
%

>  <cytotoxicity at 70.5 h>
-1.93

$$$$
>  <compound>
Cn1ccnc1C(=O)NC[C@H]1OC[C@@H]2CCN(S(C)(=O)=O)C[C@@H]21

>  <unitText>
%

>  <cytotoxicity at 70.5 h>
21.4

$$$$

Record CC(=O)NCCOc1cccc(Br)c1 . Reported cytotoxicity at 70.5 h: 2.45

Record CCCC(=O)N(CCCN1CCOCC1)c1nc2c(F)cccc2s1 . Reported cytotoxicity at 70.5 h: -1.9

Record CC(=O)c1cc(CN2C[C@H]3CC[C@@H]2CN(Cc2c(C)noc2C)C3)cs1 . Reported cytotoxicity at 70.5 h: -8.51

Record N#Cc1cccc(N2CC3(CCN(C(=O)NC4CC4)C3)CC2=O)c1 (stereo not drawn) . Reported cytotoxicity at 70.5 h: -4.14

Record COc1ncc(CN(CCN(C)C)Cc2ccc(C)s2)cn1 . Reported cytotoxicity at 70.5 h: 12.8

Record CCOCC(O)CN1CCN(C(=O)Cc2cccc(C)c2)CC1 (stereo not drawn) . Reported cytotoxicity at 70.5 h: -4.31

Record COC(=O)c1ccc(/C=C/c2ncc(C(=O)O)s2)cc1 . Reported cytotoxicity at 70.5 h: 3.38

Record Cc1ccc(CN2CC[C@H]3[C@H](CC(Cn4cccn4)N3C)C2)s1 (stereo partly drawn) . Reported cytotoxicity at 70.5 h: 15.9

Values were extracted from ChEMBL document CHEMBL3507680.
